target: α5β3γ2 GABAA/BzR (Homo sapiens, UniProt P18507+P31644); assay: Competition binding to HEK cell membranes, α5β3γ2; parameters: expressed in transfected cells; settings: Ki α5
pKi: −log10 of the molar value.
measured_attribute: pKi

INSERT INTO assay_data (compound, reading) VALUES
  ('COCc1c(C(=O)OC(C)C)ncc2[nH]c3ccc(OCc4ccccc4)cc3c12 [ABECARNIL, reference compound]', 8.22),
  ('CCOC(=O)c1ncc2[nH]c3ccc(OCc4ccccc4)cc3c2c1COC [ZK 93423, reference compound]', 8.35),
  ('C#Cc1ccc2c(c1)C(c1ccccc1)=NCc1c(C(=O)OCCCOC(=O)c3ncn4c3CN=C(c3ccccc3)c3cc(C#C)ccc3-4)ncn1-2', 6.71),
  ('CC(C)(C)OC(=O)c1cc2c(cn1)[nH]c1ccc(F)cc12', 8.34);

----------
Each entry below carries its recorded log10(Ki).
molecular target: α5β3γ2 GABAA/BzR (Homo sapiens, UniProt P18507+P31644); test: Competition binding to HEK cell membranes, α5β3γ2; parameters: expressed in transfected cells; conditions: read-out: Ki α5
measured_attribute: log10(Ki) (log10 of the value in nM)

INSERT INTO assay_data (molecule, reading) VALUES
  ('CN1Cc2c(C(=O)OC3CC3)ncn2-c2ccc(Cl)cc2C1=O', 0.99),
  ('C#Cc1ccc2c(c1)C(c1cccs1)=NCC(=O)N2', 0.70),
  ('O=C(OCC(F)(F)F)c1ncn2c1C1CCCN1C(=O)c1cc(Br)ccc1-2 (centres unmarked)', 1.09),
  ('CC(C)(C)CC(=O)c1cc2c(cn1)[nH]c1ccccc12', 1.63),
  ('COc1ccc2c(c1)C(=O)N1CCC[C@H]1c1c(C(=O)OCc3ccccc3)ncn1-2', -0.29),
  ('C#Cc1ccc2c(c1)C(c1cccs1)=NCC(=O)N2C', 1.25),
  ('O=C(O)c1ncn2c1CN=C(c1ccccc1F)c1cc(Br)ccc1-2', -0.37),
  ('O=C(OCC(F)(F)F)c1ncn2c1[C@@H]1CCCN1C(=O)c1ccccc1-2', 1.11),
  ('O=C1CN=C(c2ccccc2Cl)c2cc(Br)ccc2N1', 0.31),
  ('O=C1CN=C(c2cccs2)c2cc(Br)ccc2N1', 0.83),
  ('Cc1nnc2n1-c1ccc(Br)cc1C(c1ccccc1Cl)=NC2 [DM-II-90]', -0.43),
  ('CN1Cc2c(C(=O)OC(C)(C)C)ncn2-c2ccc(N3CCCC3)cc2C1=O', 0.97),
  ('CC[C@H](C)OC(=O)c1ncn2c1[C@@H]1CCCN1C(=O)c1cc(I)ccc1-2 [CM-B31i (ss)]', 0.69),
  ('CC(C)(C)OC(=O)c1cc2c(cn1)[nH]c1ccc(I)cc12', 1.81),
  ('C#Cc1ccc2c(c1)C(c1ccccc1F)=NCc1c(C(=O)NC)ncn1-2', -0.09),
  ('O=C1CN=C(c2ccccc2F)c2cc(Br)ccc2N1', -0.59),
  ('C#Cc1ccc2c(c1)C(c1cccs1)=NCc1c(C(=O)OCC)ncn1-2', 0.89),
  ('c1ccc2c(c1)[nH]c1c2ncc2[nH]c3ccccc3c21', 1.61),
  ('C=Cc1ccc2c(c1)C(=O)N1CCC[C@H]1c1c(C(=O)OC(C)(C)C)ncn1-2', -0.29),
  ('C#Cc1ccc2c(c1)C(c1ccccc1F)=NC(C)C(=O)N2C (centres unmarked)', 0.54);

----------
molecular target: α5β3γ2 GABAA/BzR (Homo sapiens, UniProt P18507+P31644); experiment: Competition binding to HEK cell membranes, α5β3γ2; parameters: expressed in transfected cells; conditions: read-out: Ki α5
With a cut-off of 1 nM, any Ki strictly below it is called Met; any Ki meeting it or above is called Not met.

INSERT INTO assay_data (molecule, label_class) VALUES
  ('O=C(OCC(Cl)(Cl)Cl)c1ncn2c1CN=C(c1ccccc1)c1cc(Br)ccc1-2', 'Not met'),
  ('CC(C)(C)OC(=O)c1cc2c(cn1)[nH]c1ccc(F)cc12', 'Not met'),
  ('Cc1nnc2n1-c1ccc(Br)cc1C(c1ccccc1F)=NC2 [JYI-64 (C17H12N4FBr)]', 'Met'),
  ('CCc1c(C(=O)OC)ncc2[nH]c3cc(OC)c(OC)cc3c12 [DMCM, reference compound]', 'Not met'),
  ('C#Cc1ccc2c(c1)C(=O)N1CCCC1c1c(C(=O)OC(C)(C)C)ncn1-2 (stereo not shown)', 'Met'),
  ('CCOC(=O)c1cc2c(cn1)[nH]c1ccc(C#C[Si](C)(C)C)cc12', 'Not met'),
  ('C[Si](C)(C)C#Cc1ccc2c(c1)C(c1ccccc1F)=NCC(=O)N2', 'Not met');

----------
Observed Ki values for KOR (Homo sapiens) are listed in what follows.
measured_attribute: Ki (µM)

INSERT INTO measurements (compound, scale_unit, reading) VALUES
  ('C#Cc1ccc2c(c1)C(=O)N(C)Cc1c(C(=O)OCCCOC(=O)c3ncn4c3CN(C)C(=O)c3cc(C#C)ccc3-4)ncn1-2 [XLi-093 (4)]', 'µM', 2.02),
  ('CCc1ccc2c(c1)C(=O)N(C)Cc1c(C(=O)OCCCOC(=O)c3ncn4c3CN(C)C(=O)c3cc(CC)ccc3-4)ncn1-2 [XLi-356 (10)]', 'µM', 6.12);

----------
In this section we review reported Ki values for a set of compounds.
biological target: α6β3γ2 GABAA/BzR (Homo sapiens, UniProt P18507+Q16445); experiment: Competition binding to HEK cell membranes, α6β3γ2; design: expressed in transfected cells; settings: Ki α6
measured_attribute: Ki (µM)

INSERT INTO measurements (compound, reading) VALUES
  ('CC(C)(C)OC(=O)c1cc2c(cn1)[nH]c1ccc(-c3ccccc3)cc12 [WYS15]', 5),
  ('C#Cc1ccc2c(c1)C(c1ccccc1)=NCc1c(C(=O)OCCCOC(=O)c3ncn4c3CN=C(c3ccccc3)c3cc(C#C)ccc3-4)ncn1-2 [compound 63]', 5),
  ('CCOc1cc2c(cn1)[nH]c1ccccc12 [3 EBC, 3-Ethoxy-beta-carboline]', 1),
  ('CCOC(=O)c1cc2c(cn1)[nH]c1ccc(C#C[Si](C)(C)C)cc12 [WY-B-99-1]', 2),
  ('C#Cc1ccc2[nH]c3cnc(C(=O)OC(C)(C)C)cc3c2c1 [WY-A-99-2 (WYS8)]', 1.98);

----------
target: α1β3γ2 GABAA/BzR (Homo sapiens, UniProt P14867+P18507); assay: Competition binding to HEK cell membranes, α1β3γ2; parameters: expressed in transfected cells; conditions: Ki α1
pKi: −log10 of the molar value.
A collection of molecules and their measured pKi
measured_attribute: pKi

INSERT INTO assay_data (molecule, reading) VALUES
  ('C#Cc1ccc2c(c1)C(c1ccccc1)=NCc1c(C(=O)OCCCOC(=O)c3ncn4c3CN=C(c3ccccc3)c3cc(C#C)ccc3-4)ncn1-2', 6.63),
  ('CC(C)(C)OC(=O)c1cc2c(cn1)[nH]c1ccc(-c3ccccc3)cc12', 8.44),
  ('CC(C)(C)OC(=O)c1ncn2c1[C@@H]1CCCN1C(=O)c1c(Br)cccc1-2 [BRETAZENIL, reference compound]', 9.46),
  ('COCc1c(C(=O)OC(C)C)ncc2[nH]c3ccc(OCc4ccccc4)cc3c12 [ABECARNIL, reference compound]', 7.91);

----------
biological target: α5β3γ2 GABAA/BzR (Homo sapiens, UniProt P18507+P31644); assay: Competition binding to HEK cell membranes, α5β3γ2; parameters: expressed in transfected cells; details: read-out: Ki α5
pKi: −log10 of the molar value.
Entries and their pKi values follow.
measured_attribute: pKi

INSERT INTO measurements (molecule, reading) VALUES
  ('C[Si](C)(C)C#Cc1ccc2c(c1)C(=O)N1CCC[C@H]1c1c(C(=O)OCC(F)(F)F)ncn1-2', 6.19),
  ('CCOC(=O)c1ncn2c1C1CCN1C(=O)c1cc(OC)ccc1-2 (centres unmarked)', 9.24),
  ('COCc1ncn2c1CN(C)C(=O)c1cc(Cl)ccc1-2', 8.21),
  ('CCOc1cc2c(cn1)[nH]c1ccccc12', 6.08),
  ('Cc1nnc2n1-c1ccc(Br)cc1C(c1ccccc1F)=NC2 [JYI-57]', 10.44);

----------
biological target: α4β3γ2 GABAA/BzR (Homo sapiens, UniProt P18507+P48169); construct: expressed in transfected cells; host or cells: LTK cells (given for XLi-093 only); experiment: biochemical; format: binding; conditions: read-out: Ki α4
Here, each record is paired with measured Ki data.
measured_attribute: Ki (nM)

INSERT INTO results (molecule, measured_attribute, reading) VALUES
  ('COc1ccc2c(c1)C(=O)N1CCC[C@H]1c1c(C(=O)OCC(F)(F)F)ncn1-2 [CM-E09a]', 'Ki', 490),
  ('COc1ccc2c(c1)C(=O)N1CCC[C@H]1c1c(C(=O)OCc3ccccc3)ncn1-2 [CM-E10]', 'Ki', 215),
  ('CCC(OC(=O)c1ncn2c1C1CCCN1C(=O)c1cc(Br)ccc1-2)C(F)(F)F (centres unmarked) [MMB-II-87]', 'Ki', 109),
  ('CN1Cc2c(C(=O)OC(C)(C)C)ncn2-c2ccc(C#C[Si](C)(C)C)cc2C1=O [RY-023 C22H27N3O3Si]', 'Ki', 7.8),
  ('O=C(OC(C(F)(F)F)C(F)(F)F)c1ncn2c1C1CCCN1C(=O)c1ccccc1-2 (centres unmarked) [MMB-III-18]', 'Ki', 3500),
  ('CC(C)(C)CC(=O)c1cc2c(cn1)[nH]c1ccccc12 [CM-A77]', 'Ki', 1000),
  ('C#Cc1ccc2c(c1)C(c1ccccc1F)=NC(C)C(=O)N2C (centres unmarked) [OMB-19]', 'Ki', 3330),
  ('O=C(OC(C(F)(F)F)C(F)(F)F)c1ncn2c1C1CCCN1C(=O)c1ccccc1-2 (centres unmarked) [MMB-III-018]', 'Ki', 3500),
  ('CC[C@H](C)OC(=O)c1ncn2c1[C@@H]1CCCN1C(=O)c1cc(I)ccc1-2 [CM-B31i (ss)]', 'Ki', 18),
  ('CC(C)OC(=O)c1ncn2c1[C@@H]1CCCN1C(=O)c1ccccc1-2 [MMB-III-016]', 'Ki', 1070),
  ('CCC(OC(=O)c1ncn2c1C1CCCN1C(=O)c1cc(Cl)ccc1-2)C(F)(F)F (mixture of isomers) [CM-B45]', 'Ki', 265),
  ('CC(C)OC(=O)c1ncn2c1[C@@H]1CCCN1C(=O)c1cc(Br)ccc1-2 [MMB-II-90]', 'Ki', 9),
  ('C#Cc1ccc2c(c1)C(c1ccccc1F)=NCC(=O)N2C [OMB-18]', 'Ki', 1730),
  ('CCOC(=O)c1cc2c(cn1)[nH]c1ccc(I)cc12 [CM-B01]', 'Ki', 1000);
